Assay: Metabolic stability in rat liver microsomes assessed as half life
Format: ADME, Microsome
QUANTITY_KIND: half-life

Q: Return reported half-life; argument: C[C@H]1CCCN1C(=O)c1nc(C(=O)NCC(C)(C)O)sc1-c1ccc(C(O)(C(F)(F)F)C(F)(F)F)c(Cl)c1Cl
Result: > 3 h

====

Molecular target: Cytochrome P450 3A4 (Homo sapiens, UniProt P08684)
Sequence (P08684 whole entry): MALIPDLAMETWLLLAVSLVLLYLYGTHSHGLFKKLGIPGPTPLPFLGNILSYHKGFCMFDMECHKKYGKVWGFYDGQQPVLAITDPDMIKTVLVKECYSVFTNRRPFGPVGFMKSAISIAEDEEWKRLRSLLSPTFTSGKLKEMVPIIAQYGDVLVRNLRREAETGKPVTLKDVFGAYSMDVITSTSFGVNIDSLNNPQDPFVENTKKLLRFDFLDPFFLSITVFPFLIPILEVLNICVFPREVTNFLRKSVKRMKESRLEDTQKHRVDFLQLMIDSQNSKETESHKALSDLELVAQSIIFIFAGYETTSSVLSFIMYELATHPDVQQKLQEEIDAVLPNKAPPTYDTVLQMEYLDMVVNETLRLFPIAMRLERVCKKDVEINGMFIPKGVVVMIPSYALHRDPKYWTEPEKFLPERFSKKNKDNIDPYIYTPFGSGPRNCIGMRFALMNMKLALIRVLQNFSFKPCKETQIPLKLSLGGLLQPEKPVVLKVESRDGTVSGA
Experiment: Induction of CYP3A4 in human hepatocytes at 10 uM relative to control
Assay type: ADME, cell-based, Hepatocyte
Assign TRUE whenever Activity does not fall below 20%; assign FALSE whenever it does.

Q: Say whether CCN(CC)C(=O)c1nc(C(=O)NCC(C)(C)O)sc1-c1ccc(C(O)(C(F)(F)F)C(F)(F)F)c(Cl)c1Cl shows Activity of 20% or more.
Result: FALSE

Q: And for C[C@H]1CCCN1C(=O)c1nc(C(=O)NCC(C)(C)O)sc1-c1ccc(C(O)(C(F)(F)F)C(F)(F)F)cc1Cl ?
Result: FALSE

Q: And for Cc1cc(C(O)(C(F)(F)F)C(F)(F)F)ccc1-c1sc(C(=O)NCC(C)(C)O)nc1C(=O)N1CCCC[C@@H]1C ?
Result: FALSE

Q: And for Cc1cc(C(O)(C(F)(F)F)C(F)(F)F)ccc1-c1sc(C(=O)NCC(C)(C)O)nc1C(=O)N1CCC[C@@H]1C ?
Result: FALSE

Q: And for C[C@H]1CCCN1C(=O)c1nc(C(=O)NCC(C)(C)O)sc1-c1ccc(C(O)(C(F)(F)F)C(F)(F)F)cc1C(F)F ?
Result: TRUE

Q: And for C[C@H]1CCCN1C(=O)c1nc(C(=O)NCC(C)(C)O)sc1-c1ccc(C(O)(C(F)(F)F)C(F)(F)F)c(Cl)c1Cl ?
Result: TRUE

====

Can you tell me Activity for the items I'm about to list?
Molecular target: Nuclear receptor subfamily 1 group I member 2 (Homo sapiens)
Sequence (O75469 whole entry): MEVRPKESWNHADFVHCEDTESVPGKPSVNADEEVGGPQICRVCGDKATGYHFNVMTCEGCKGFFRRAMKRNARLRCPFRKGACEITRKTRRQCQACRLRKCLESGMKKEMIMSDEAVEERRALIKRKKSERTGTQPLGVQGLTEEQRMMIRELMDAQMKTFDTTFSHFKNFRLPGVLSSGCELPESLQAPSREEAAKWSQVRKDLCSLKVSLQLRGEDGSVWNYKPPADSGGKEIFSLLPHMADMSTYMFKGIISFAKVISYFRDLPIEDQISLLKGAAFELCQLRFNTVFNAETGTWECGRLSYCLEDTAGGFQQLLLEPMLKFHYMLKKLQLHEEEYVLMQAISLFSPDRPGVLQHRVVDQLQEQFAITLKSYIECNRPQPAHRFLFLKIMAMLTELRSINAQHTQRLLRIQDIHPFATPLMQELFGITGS
Assay: Activation of human PXR at 1 uM relative to control
Type: toxicity
All answers are understood in %, so give the number only.

Q: Return reported Activity; argument: CCN(CC)C(=O)c1nc(C(=O)N2C[C@H](O)C[C@H](O)C2)sc1-c1ccc(C(O)(C(F)(F)F)C(F)(F)F)c(Cl)c1Cl
Result: 2.7

Q: And for C[C@H]1CCCCN1C(=O)c1nc(C(=O)NCC(C)(C)O)sc1-c1ccc(C(O)(C(F)(F)F)C(F)(F)F)cc1Cl ?
Result: 13

Q: And for CCN(C(=O)c1nc(C(=O)NCC(C)(C)O)sc1-c1ccc(C(O)(C(F)(F)F)C(F)(F)F)c(Cl)c1Cl)C1CCC1 ?
Result: 10

Q: And for C[C@H](NS(=O)(=O)c1ccc(-c2sc(C(=O)NCC(C)(C)O)nc2C(=O)N2CCC(F)CC2)c(Cl)c1Cl)C(F)(F)F ?
Result: 13

Q: And for Cc1cc(C(O)(C(F)(F)F)C(F)(F)F)ccc1-c1sc(C(=O)NCC(C)(C)O)nc1C(=O)N1CCCC[C@@H]1C ?
Result: 8

Q: And for C[C@H]1C[C@@H](F)CCN1C(=O)c1nc(C(=O)NCC(C)(C)O)sc1-c1ccc(C(O)(C(F)(F)F)C(F)(F)F)c(Cl)c1Cl ?
Result: 14

Q: And for C[C@H]1CCCN1C(=O)c1nc(C(=O)NCC(C)(C)O)sc1-c1ccc(C(O)(C(F)(F)F)C(F)(F)F)cc1C(F)F ?
Result: 27

Q: And for C[C@H]1CCCN1C(=O)c1nc(C(=O)NCC(C)(C)O)sc1-c1ccc(C(O)(C(F)(F)F)C(F)(F)F)cc1Cl ?
Result: 3.6

Q: And for CCN(CC)C(=O)c1nc(C(=O)NCC(C)(C)O)sc1-c1ccc(C(O)(C(F)(F)F)C(F)(F)F)c(Cl)c1Cl ?
Result: 32

Q: And for CC(C)(O)CNC(=O)c1nc(C(=O)N2CCC(F)CC2)c(-c2ccc(C(O)(C(F)(F)F)C(F)(F)F)c(Cl)c2Cl)s1 ?
Result: 1.5

Q: And for C[C@H]1CCCN1C(=O)c1nc(C(=O)NCC(C)(C)O)sc1-c1ccc(C(O)(C(F)(F)F)C(F)(F)F)c(Cl)c1Cl ?
Result: 18

Q: And for CN(C(=O)c1nc(C(=O)NCC(C)(C)O)sc1-c1ccc(C(O)(C(F)(F)F)C(F)(F)F)c(Cl)c1Cl)C1CCC1 ?
Result: 1.9

Q: And for C[C@H]1CC(F)(F)CN1C(=O)c1nc(C(=O)NCC(C)(C)O)sc1-c1ccc(C(O)(C(F)(F)F)C(F)(F)F)c(Cl)c1Cl ?
Result: 27

Q: And for C[C@H]1CCCCN1C(=O)c1nc(C(=O)NCC(C)(C)O)sc1-c1ccc(C(O)(C(F)(F)F)C(F)(F)F)cc1C(F)F ?
Result: 28

Q: And for Cc1cc(C(O)(C(F)(F)F)C(F)(F)F)ccc1-c1sc(C(=O)NCC(C)(C)O)nc1C(=O)N1CCC[C@@H]1C ?
Result: 12
